Data provenance is ChEMBL document CHEMBL1932945.

target.or.test.system: Proto-oncogene tyrosine-protein kinase Src (Homo sapiens, UniProt P12931)
Sequence (P12931 2-536 limits assumed): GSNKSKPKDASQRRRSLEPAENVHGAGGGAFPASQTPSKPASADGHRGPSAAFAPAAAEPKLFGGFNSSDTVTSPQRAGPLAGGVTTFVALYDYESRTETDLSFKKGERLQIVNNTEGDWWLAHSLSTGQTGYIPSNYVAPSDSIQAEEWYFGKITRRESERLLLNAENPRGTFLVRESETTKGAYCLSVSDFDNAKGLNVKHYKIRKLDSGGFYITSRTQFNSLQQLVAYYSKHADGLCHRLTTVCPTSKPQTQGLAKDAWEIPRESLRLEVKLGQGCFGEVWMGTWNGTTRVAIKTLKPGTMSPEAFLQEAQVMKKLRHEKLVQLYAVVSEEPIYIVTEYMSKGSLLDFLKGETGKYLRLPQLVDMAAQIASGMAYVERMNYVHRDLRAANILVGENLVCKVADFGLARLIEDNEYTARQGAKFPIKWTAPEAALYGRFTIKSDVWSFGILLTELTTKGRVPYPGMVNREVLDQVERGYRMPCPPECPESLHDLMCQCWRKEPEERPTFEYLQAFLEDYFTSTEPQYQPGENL
experiment.notes: Inhibition of His6-tagged c-Src kinase domain using AEEEIYGEFEAKKKK as substrate pre-incubated for 10 mins before substrate addition measured after 30 mins by Transcreener ADP2 FI Assay
readout.label: IC50 (µM)
Kindly answer with a numeric value in µM, unit omitted.

- structure.smiles.string: "COc1cccc(-n2nc3c(c2-c2ccc(C)c(Cl)c2)C(=O)CCC3)c1"
  IC50, µM: 82.7
- structure.smiles.string: "CC1(C)CC(=O)c2c(nn(-c3ccc(Cl)c(Cl)c3)c2-c2ccc(Cl)cc2)C1"
  IC50, µM: 86
- structure.smiles.string: "CC1(C)CC(=O)c2c(nn(-c3ccc(O)cc3)c2-c2ccc(Cl)c(Cl)c2)C1"
  IC50, µM: 66.6
- structure.smiles.string: "Cc1ccc(-c2c3c(nn2-c2ccc(Cl)cc2)CC(C)(C)CC3=O)cc1Cl"
  IC50, µM: 132

Consider now this further compound.
Determine its reported IC50: Cc1ccc(-n2nc3c(c2C2CCCCC2)C(=O)CCC3)cc1
57.7

---

Quick record of pIC50 values for Proto-oncogene tyrosine-protein kinase Src (Homo sapiens).
pIC50: −log10 of the molar value.

Check out these entries, answers already filled in.
- structure.smiles.string: "CC1(C)CC(=O)c2c(nn(-c3ccc(Cl)cc3)c2-c2ccc(C(C)(C)C)cc2)C1"
  observed: "< 3.82"
- structure.smiles.string: "Cc1ccc(-n2nc3c(c2-c2ccc(C(C)(C)C)cc2)C(=O)CC(C)(C)C3)cc1"
  observed: "< 3.82"
- structure.smiles.string: "CC1(C)CC(=O)c2c(nn(-c3cccs3)c2-c2ccc(Cl)c(Cl)c2)C1"
  observed: "< 3.82"
- structure.smiles.string: "CC1(C)CC(=O)c2c(nn(-c3ccccc3)c2-c2ccc(Cl)c(Cl)c2)C1"
  observed: 4.21

Continue with the next molecule.
Indicate its recorded pIC50; the molecule in question is CC1(C)OC(=O)c2c(nn(-c3ccc(Cl)cc3)c2C2CCCCC2)O1
< 3.82
